Attribution: patent US20100150834A1

Field: % Binding. Provide a value for each of the binders that follow.
- assay-system: T1, EphB4 (receptor of Table 1) (Mus musculus (Mouse), UniProt P54761 16-539)
- T1 sequence: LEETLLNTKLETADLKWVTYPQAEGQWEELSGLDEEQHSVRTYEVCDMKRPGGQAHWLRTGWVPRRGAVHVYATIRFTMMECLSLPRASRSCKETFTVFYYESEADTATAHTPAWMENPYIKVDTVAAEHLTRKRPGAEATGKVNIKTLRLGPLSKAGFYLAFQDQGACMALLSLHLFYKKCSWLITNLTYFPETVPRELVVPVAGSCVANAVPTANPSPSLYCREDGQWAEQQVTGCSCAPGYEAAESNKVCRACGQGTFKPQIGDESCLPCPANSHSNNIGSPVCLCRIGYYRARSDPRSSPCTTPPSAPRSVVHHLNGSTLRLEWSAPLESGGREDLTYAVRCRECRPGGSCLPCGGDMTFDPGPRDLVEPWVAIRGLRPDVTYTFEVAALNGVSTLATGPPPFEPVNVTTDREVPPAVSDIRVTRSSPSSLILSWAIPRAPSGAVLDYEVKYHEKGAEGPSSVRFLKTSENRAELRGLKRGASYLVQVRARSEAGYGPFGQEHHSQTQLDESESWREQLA
- experimental-protocol: EphB receptor specificity panel (% binding)

Form: binder = DHWRILPFSLSS (Panned on EphB2) [DHWRILPFSLSS peptide (SEQ ID NO:10)] ; % Binding = 1%

Form: binder = TTLSQLPKSTWL (Panned on EphB1) [TTLSQLPKSTWL peptide (SEQ ID NO:2)] ; % Binding = 0%

Form: binder = GPVSKAWQETET (Panned on EphB4) [GPVSKAWQETET peptide (SEQ ID NO:31)] ; % Binding = 100%

Form: binder = DHWYYTPWQPIE (Panned on EphB2) [DHWYYTPWQPIE peptide (SEQ ID NO:9)] ; % Binding = 5%

Form: binder = DALNDWLLFRPW (Panned on EphB4) [DALNDWLLFRPW peptide (SEQ ID NO:20)] ; % Binding = 100%

Form: binder = IPWTQHMAMSPM (Panned on EphB4) [… peptide (SEQ ID NO:34)] ; % Binding = 100%

Form: binder = EWLSPNLAPSVR (Panned on EphB1; Footnote e: biotinylated and non-biotinylated peptides gave the same IC50) [EWLSPNLAPSVR peptide (SEQ ID NO:1)] ; % Binding = 1%

Form: binder = WHRYPDPRMLPT (Panned on EphB2) [WHRYPDPRMLPT peptide (SEQ ID NO:7)] ; % Binding = 13%

Form: binder = NPVIGPIQRAWT (Panned on EphB4) [NPVIGPIQRAWT peptide (SEQ ID NO:27)] ; % Binding = 100%

Form: binder = SHKFPGPPSWMS (Panned on EphB1) [SHKFPGPPSWMS peptide (SEQ ID NO:4)] ; % Binding = 9%

Form: binder = THWKFQPWALVT (Panned on EphB1) [THWKFQPWALVT peptide (SEQ ID NO:5)] ; % Binding = 0%

Form: binder = EFFTWRPTYYGI (Panned on EphB4) [EFFTWRPTYYGI peptide (SEQ ID NO:23)] ; % Binding = 100%

Form: binder = IHWPVAPYSYLD (Panned on EphB2) [IHWPVAPYSYLD peptide (SEQ ID NO:11)] ; % Binding = 4%

Form: binder = WPPHWPRSLDYA (Panned on EphB2) [WPPHWPRSLDYA peptide (SEQ ID NO:17)] ; % Binding = 0%

Form: binder = SHWPISPYSLLS (Panned on EphB2) [SHWPISPYSLLS peptide (SEQ ID NO:14)] ; % Binding = 4%

Form: binder = DHNHNLYNPWRL (Panned on EphB4) [DHNHNLYNPWRL peptide (SEQ ID NO:21)] ; % Binding = 100%
